- Assay Explanation: Dissociation constant, pKa of compound
- Assay type: physicochemical
// reported pKa for each item listed

Item Smiles: Cc1csc([C@@H]2C[C@H](NC(=O)[C@@H]3CC(=O)N(C)C(=O)N3)CN2C(=O)c2ccc(C(=O)O)cc2)n1
pKa: 3.6

Item Smiles: Cc1csc([C@@H]2C[C@H](NC(=O)[C@@H]3CC(=O)N(C)C(=O)N3)CN2C(=O)c2ccc(-c3nn[nH]n3)cc2)n1
pKa: 3.7

Item Smiles: CNC(=O)c1csc([C@@H]2C[C@H](NC(=O)[C@@H]3CC(=O)N(C)C(=O)N3)CN2C(=O)c2ccc(-c3nn[nH]n3)cc2)n1
pKa: 4

Item Smiles: Cc1csc([C@@H]2C[C@H](NC(=O)[C@@H]3CC(=O)N(C)C(=O)N3)CN2C(=O)c2ccc(-c3nnc[nH]3)cc2)n1
pKa: 8.9

====

- Assay System: N-alpha-acetyltransferase 50 (Homo sapiens)
- Sequence (Q9GZZ1 whole entry): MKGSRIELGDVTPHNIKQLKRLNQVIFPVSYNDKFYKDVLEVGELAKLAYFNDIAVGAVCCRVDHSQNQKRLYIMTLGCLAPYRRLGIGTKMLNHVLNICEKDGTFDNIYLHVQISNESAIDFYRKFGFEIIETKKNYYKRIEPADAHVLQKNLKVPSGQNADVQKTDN
pKd: −log10 of the molar value.

Item Smiles: CC(C)(COP(=O)(O)OP(=O)(O)OC[C@H]1O[C@@H](n2cnc3c(N)ncnc32)[C@H](O)[C@@H]1OP(=O)(O)O)[C@@H](O)C(=O)NCCC(=O)NCCS
pKd: 6.81

Item Smiles: CC(=O)SCCNC(=O)CCNC(=O)[C@H](O)C(C)(C)COP(=O)(O)OP(=O)(O)OC[C@H]1O[C@@H](n2cnc3c(N)ncnc32)[C@H](O)[C@@H]1OP(=O)(O)O
pKd: 7.75
